# System: Aspergillus fumigatus 9648
# Format: cell-based
# condition_set: 9648, 24 h
Square brackets hold non-standard residues; d marks the D form. Peptide text beside a SMILES is read from it. Orn = NCCC[C@H](N)C(=O)O
measured_parameter: MIC against Aspergillus fumigatus 9648 (µg/mL)

[[record]]
molecule = "CC[C@H](C)[C@H](NC(=O)[C@H](CCCN)NC(=O)[C@H](C)NC(=O)[C@H](CCCN)NC(=O)[C@H](CC(C)C)NC(=O)[C@H](CCCCN)NC(=O)[C@@H](NC(=O)[C@H](CCCCN)NC(=O)[C@@H](NC(=O)[C@H](CCCN)NC(=O)[C@H](C)NC(=O)[C@H](CCCN)NC(=O)[C@H](CC(C)C)NC(=O)[C@H](CCCN)NC(=O)[C@@H](N)Cc1ccccc1)[C@@H](C)CC)C(C)C)C(=O)N[C@@H](CCCN)C(=O)N[C@@H](CC(C)C)C(N)=O [RP555] (H-F[Orn]L[Orn]A[Orn]IKVKL[Orn]A[Orn]I[Orn]L-NH2)"
measured_parameter = "MIC against Aspergillus fumigatus 9648"
test_result = 64


----------
# Test system: Absidia corymbifera NRRL 6251
# Type: cell-based
# condition_set: NRRL 6251, 24 h
Square brackets hold non-standard residues; d marks the D form. Peptide text beside a SMILES is read from it. Orn = NCCC[C@H](N)C(=O)O
measured_parameter: MIC against Absidia corymbifera NRRL 6251 (µg/mL)

[[record]]
compound = "CC[C@H](C)[C@H](NC(=O)[C@H](CCCN)NC(=O)[C@H](C)NC(=O)[C@H](CCCN)NC(=O)[C@H](CC(C)C)NC(=O)[C@H](CCCN)NC(=O)[C@@H](NC(=O)[C@H](CCCN)NC(=O)[C@@H](NC(=O)[C@H](CCCN)NC(=O)[C@H](C)NC(=O)[C@H](CCCN)NC(=O)[C@H](CC(C)C)NC(=O)[C@H](CCCN)NC(=O)[C@@H](N)Cc1ccccc1)[C@@H](C)CC)C(C)C)C(=O)N[C@@H](CCCN)C(=O)N[C@@H](CC(C)C)C(N)=O [RP554] (H-F[Orn]L[Orn]A[Orn]I[Orn]V[Orn]L[Orn]A[Orn]I[Orn]L-NH2)"
unit_descriptor = "µg/mL"
test_result = 4


----------
# System: Candida krusei Y-27825
# Type: cell-based
# condition_set: Y-27825, 24 h
Bridge positions count the residues as written; N and C are the ends. Square brackets hold non-standard residues; d marks the D form. Peptide text beside a SMILES is read from it. Orn = NCCC[C@H](N)C(=O)O
Here, each record is paired with measured MIC against Candida krusei Y-27825 data.
measured_parameter: MIC against Candida krusei Y-27825

[[record]]
compound = "CC[C@H](C)[C@H](NC(=O)[C@H](CCCCN)NC(=O)[C@H](CC(C)C)NC(=O)[C@H](CCCN)NC(=O)[C@H](CC(C)C)NC(=O)[C@H](CCCNC(=N)N)NC(=O)[C@H](C)NC(=O)[C@H](CCCNC(=N)N)NC(=O)[C@@H](NC(=O)[C@H](CCCN)NC(=O)[C@H](Cc1ccccc1)NC(=O)[C@H](CCCNC(=N)N)NC(=O)[C@H](C)NC(=O)[C@H](CCCCN)NC(=O)[C@@H](NC(=O)[C@H](CCCN)NC(=O)[C@@H](N)Cc1ccccc1)[C@@H](C)CC)C(C)C)C(N)=O [RP553] (H-F[Orn]IKARF[Orn]VRARL[Orn]LKI-NH2)"
test_result = "32 µg/mL"

[[record]]
compound = "CC[C@H](C)[C@H](NC(=O)[C@H](CCCN)NC(=O)[C@H](C)NC(=O)[C@H](CCCN)NC(=O)[C@H](CC(C)C)NC(=O)[C@H](CCCCN)NC(=O)[C@@H](NC(=O)[C@H](CCCCN)NC(=O)[C@@H](NC(=O)[C@H](CCCN)NC(=O)[C@H](C)NC(=O)[C@H](CCCN)NC(=O)[C@H](CC(C)C)NC(=O)[C@H](CCCN)NC(=O)[C@@H](N)Cc1ccccc1)[C@@H](C)CC)C(C)C)C(=O)N[C@@H](CCCN)C(=O)N[C@@H](CC(C)C)C(N)=O [RP555] (H-F[Orn]L[Orn]A[Orn]IKVKL[Orn]A[Orn]I[Orn]L-NH2)"
test_result = "32 µg/mL"

[[record]]
compound = "CC[C@H](C)[C@H](NC(=O)[C@H](CCCN)NC(=O)[C@H](C)NC(=O)[C@H](CCCN)NC(=O)[C@H](CC(C)C)NC(=O)[C@H](CCCN)NC(=O)[C@@H](NC(=O)[C@H](CCCN)NC(=O)[C@@H](NC(=O)[C@H](CCCN)NC(=O)[C@H](C)NC(=O)[C@H](CCCN)NC(=O)[C@H](CC(C)C)NC(=O)[C@H](CCCN)NC(=O)[C@@H](N)Cc1ccccc1)[C@@H](C)CC)C(C)C)C(=O)N[C@@H](CCCN)C(=O)N[C@@H](CC(C)C)C(N)=O [RP554] (H-F[Orn]L[Orn]A[Orn]I[Orn]V[Orn]L[Orn]A[Orn]I[Orn]L-NH2)"
test_result = "16 µg/mL"

[[record]]
compound = "CSCC[C@@H]1NC(=O)[C@H](C(C)C)NC(=O)[C@H](C(C)C)NC(=O)[C@H](CC(C)C)NC(=O)[C@H](Cc2c[nH]c3ccccc23)NC(=O)[C@H](C(C)C)NC(=O)[C@@H](NC(=O)[C@H](Cc2c[nH]c3ccccc23)NC(=O)[C@@H](N)CCCNC(=N)N)CSSC[C@@H](C(=O)N[C@@H](CCCCN)C(=O)N[C@@H](CCCCN)C(N)=O)NC1=O [RP513] (H-RWCVWLVVMCKK-NH2; disulfide 3-10)"
test_result = "64 µg/mL"


----------
# Tested on: K. pneumonia ATCC 10031
# Format: cell-based, Klebsiella pneumoniae
# condition_set: ATCC 10031, 24 h
Square brackets hold non-standard residues; d marks the D form. Peptide text beside a SMILES is read from it. Orn = NCCC[C@H](N)C(=O)O
measured_parameter: MIC against K. pneumonia ATCC 10031 (µg/mL)

[[record]]
molecule = "CC[C@H](C)[C@H](NC(=O)[C@H](CCCN)NC(=O)[C@H](C)NC(=O)[C@H](CCCN)NC(=O)[C@H](CC(C)C)NC(=O)[C@H](CCCCN)NC(=O)[C@@H](NC(=O)[C@H](CCCCN)NC(=O)[C@@H](NC(=O)[C@H](CCCN)NC(=O)[C@H](C)NC(=O)[C@H](CCCN)NC(=O)[C@H](CC(C)C)NC(=O)[C@H](CCCN)NC(=O)[C@@H](N)Cc1ccccc1)[C@@H](C)CC)C(C)C)C(=O)N[C@@H](CCCN)C(=O)N[C@@H](CC(C)C)C(N)=O [RP555] (H-F[Orn]L[Orn]A[Orn]IKVKL[Orn]A[Orn]I[Orn]L-NH2)"
measured_parameter = "MIC against K. pneumonia ATCC 10031"
test_result = 4


----------
Here, each record is paired with measured MIC against Fusarium solani NRRL 28548 data.
# Tested on: Fusarium solani NRRL 28548
# Format: cell-based
# condition_set: NRRL 28548, 24 h
Bridge positions count the residues as written; N and C are the ends. Square brackets hold non-standard residues; d marks the D form. Peptide text beside a SMILES is read from it. Orn = NCCC[C@H](N)C(=O)O
measured_parameter: MIC against Fusarium solani NRRL 28548 (µg/mL)

[[record]]
molecule = "CC[C@H](C)[C@H](NC(=O)[C@H](CCCCN)NC(=O)[C@H](CC(C)C)NC(=O)[C@H](CCCN)NC(=O)[C@H](CC(C)C)NC(=O)[C@H](CCCNC(=N)N)NC(=O)[C@H](C)NC(=O)[C@H](CCCNC(=N)N)NC(=O)[C@@H](NC(=O)[C@H](CCCN)NC(=O)[C@H](Cc1ccccc1)NC(=O)[C@H](CCCNC(=N)N)NC(=O)[C@H](C)NC(=O)[C@H](CCCCN)NC(=O)[C@@H](NC(=O)[C@H](CCCN)NC(=O)[C@@H](N)Cc1ccccc1)[C@@H](C)CC)C(C)C)C(N)=O [RP553] (H-F[Orn]IKARF[Orn]VRARL[Orn]LKI-NH2)"
unit_descriptor = "µg/mL"
test_result = 2

[[record]]
molecule = "CC[C@H](C)[C@H](NC(=O)[C@H](CCCN)NC(=O)[C@H](C)NC(=O)[C@H](CCCN)NC(=O)[C@H](CC(C)C)NC(=O)[C@H](CCCN)NC(=O)[C@@H](NC(=O)[C@H](CCCN)NC(=O)[C@@H](NC(=O)[C@H](CCCN)NC(=O)[C@H](C)NC(=O)[C@H](CCCN)NC(=O)[C@H](CC(C)C)NC(=O)[C@H](CCCN)NC(=O)[C@@H](N)Cc1ccccc1)[C@@H](C)CC)C(C)C)C(=O)N[C@@H](CCCN)C(=O)N[C@@H](CC(C)C)C(N)=O [RP554] (H-F[Orn]L[Orn]A[Orn]I[Orn]V[Orn]L[Orn]A[Orn]I[Orn]L-NH2)"
unit_descriptor = "µg/mL"
test_result = 2

[[record]]
molecule = "CSCC[C@@H]1NC(=O)[C@H](C(C)C)NC(=O)[C@H](C(C)C)NC(=O)[C@H](CC(C)C)NC(=O)[C@H](Cc2c[nH]c3ccccc23)NC(=O)[C@H](C(C)C)NC(=O)[C@@H](NC(=O)[C@H](Cc2c[nH]c3ccccc23)NC(=O)[C@@H](N)CCCNC(=N)N)CSSC[C@@H](C(=O)N[C@@H](CCCCN)C(=O)N[C@@H](CCCCN)C(N)=O)NC1=O [RP513] (H-RWCVWLVVMCKK-NH2; disulfide 3-10)"
unit_descriptor = "µg/mL"
test_result = 16

[[record]]
molecule = "CC[C@H](C)[C@H](NC(=O)[C@H](CCCN)NC(=O)[C@H](C)NC(=O)[C@H](CCCN)NC(=O)[C@H](CC(C)C)NC(=O)[C@H](CCCCN)NC(=O)[C@@H](NC(=O)[C@H](CCCCN)NC(=O)[C@@H](NC(=O)[C@H](CCCN)NC(=O)[C@H](C)NC(=O)[C@H](CCCN)NC(=O)[C@H](CC(C)C)NC(=O)[C@H](CCCN)NC(=O)[C@@H](N)Cc1ccccc1)[C@@H](C)CC)C(C)C)C(=O)N[C@@H](CCCN)C(=O)N[C@@H](CC(C)C)C(N)=O [RP555] (H-F[Orn]L[Orn]A[Orn]IKVKL[Orn]A[Orn]I[Orn]L-NH2)"
unit_descriptor = "µg/mL"
test_result = 2

